B1: INTS3 (parent)
chain: DLNSKGKKREFRFHPIKETVVEEP

Variants of: B1
TEST METHOD NOTES: protein stability index of a GFP-peptide fusion (GPS, HEK-293T) (PSI 1-6); higher = more stable;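 further: lentivirally expressed fusions sorted by FACS into six bins by GFP to DsRed ratio, PSI derived from sequencing read proportions per bin multiplied by bin number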
TEST PARAMETERS: c terminus: a fixed tail appended
ENDPOINT: protein stability index
Please reply with the value in numeric form only.

Request: Any idea what its protein stability index is? The variant is G6A
Response: 2.02

Request: Can you handle T19I next?
Response: 1.94

Request: Can you handle T19M next?
Response: 2.31

Request: Can you handle S4T next?
Response: 2.49

Request: Can you handle K5R next?
Response: 2.25

Request: Can you handle I16P next?
Response: 2.28

Request: Can you handle E18V next?
Response: 1.86

Request: Can you handle G6E next?
Response: 2.25

Request: Can you handle K7H next?
Response: 2.35

Request: Can you handle T19K next?
Response: 2

Request: Can you handle R9D next?
Response: 4.09
